Tested on: Escherichia coli TOP10
test-protocol: shrunken log2 fold change of peptide-encoding DNA abundance (4.5 h post-induction vs induction); higher = less antimicrobial activity (less host growth inhibition)
condition-details: time post-induction: 4.5 h; library: site-saturation at positions 5, 18, 19, 20

{"columns": ["sequence-content", "test-system", "shrunken log2 fold change"],
 "data": [
  ["RRIRPRPPRLPRPRPRPTQYPRP", "Escherichia coli TOP10", 0.287],
  ["RRIRTRPPRLPRPRPRPMMVPRP", "Escherichia coli TOP10", -0.18],
  ["RRIRTRPPRLPRPRPRPIWLPRP", "Escherichia coli TOP10", -0.201],
  ["RRIRSRPPRLPRPRPRPRDAPRP", "Escherichia coli TOP10", 0.328],
  ["RRIRRRPPRLPRPRPRPYVYPRP", "Escherichia coli TOP10", -0.209],
  ["RRIRMRPPRLPRPRPRPDRHPRP", "Escherichia coli TOP10", 0.0052],
  ["RRIRQRPPRLPRPRPRPGWDPRP", "Escherichia coli TOP10", 0.135],
  ["RRIRVRPPRLPRPRPRPITVPRP", "Escherichia coli TOP10", -1.15],
  ["RRIRYRPPRLPRPRPRPWMSPRP", "Escherichia coli TOP10", -0.0725],
  ["RRIRGRPPRLPRPRPRPYQLPRP", "Escherichia coli TOP10", 0.147],
  ["RRIRVRPPRLPRPRPRPPDCPRP", "Escherichia coli TOP10", -0.0843],
  ["RRIRLRPPRLPRPRPRPGLIPRP", "Escherichia coli TOP10", 0.045],
  ["RRIRRRPPRLPRPRPRPHKYPRP", "Escherichia coli TOP10", -0.192],
  ["RRIRNRPPRLPRPRPRPVRVPRP", "Escherichia coli TOP10", 0.0666],
  ["RRIRKRPPRLPRPRPRPAFHPRP", "Escherichia coli TOP10", 0.0641]
]}

====

shrunken log2 fold change reference
Tested on: Escherichia coli TOP10
test-protocol: shrunken log2 fold change of peptide-encoding DNA abundance (4.5 h post-induction vs induction); higher = less antimicrobial activity (less host growth inhibition)
condition-details: time post-induction: 4.5 h; library: site-saturation at positions 5, 18, 19, 20

{"columns": ["sequence-content", "shrunken log2 fold change"],
 "data": [
  ["RRIRARPPRLPRPRPRPYDWPRP", 0.0315],
  ["RRIRGRPPRLPRPRPRPKNGPRP", 0.0583],
  ["RRIRWRPPRLPRPRPRPIMCPRP", -0.0807],
  ["RRIRHRPPRLPRPRPRPACWPRP", 0.375],
  ["RRIRCRPPRLPRPRPRPSREPRP", -0.184],
  ["RRIRPRPPRLPRPRPRPDAEPRP", 0.496],
  ["RRIRGRPPRLPRPRPRPEIPPRP", 0.196],
  ["RRIRTRPPRLPRPRPRPYVNPRP", -0.189],
  ["RRIRGRPPRLPRPRPRPTCMPRP", 0.879],
  ["RRIRERPPRLPRPRPRPMDRPRP", 0.0196],
  ["RRIRGRPPRLPRPRPRPYKPPRP", -0.571],
  ["RRIRERPPRLPRPRPRPGMPPRP", -0.0315],
  ["RRIRGRPPRLPRPRPRPKEGPRP", 1.62],
  ["RRIRDRPPRLPRPRPRPGGGPRP", 1.08],
  ["RRIRWRPPRLPRPRPRPDIYPRP", -0.0594]
]}

====

Catalogue of sequences with associated shrunken log2 fold change
Test system: Escherichia coli TOP10
test-protocol: shrunken log2 fold change of peptide-encoding DNA abundance (4.5 h post-induction vs induction); higher = less antimicrobial activity (less host growth inhibition)
condition-details: time post-induction: 4.5 h; library: site-saturation at positions 5, 18, 19, 20

{"columns": ["sequence-content", "shrunken log2 fold change"],
 "data": [
  ["RRIRYRPPRLPRPRPRPRLSPRP", -0.0417],
  ["RRIRKRPPRLPRPRPRPCARPRP", -0.00716],
  ["RRIRRRPPRLPRPRPRPNGQPRP", -0.00184],
  ["RRIRYRPPRLPRPRPRPFKGPRP", 0.00253],
  ["RRIRQRPPRLPRPRPRPITTPRP", -0.0809],
  ["RRIRGRPPRLPRPRPRPHHQPRP", -0.185],
  ["RRIRQRPPRLPRPRPRPTYLPRP", -0.562],
  ["RRIRYRPPRLPRPRPRPILQPRP", 0.049],
  ["RRIRQRPPRLPRPRPRPEKRPRP", 0.00771],
  ["RRIRRRPPRLPRPRPRPNYYPRP", -0.333],
  ["RRIRARPPRLPRPRPRPPVGPRP", 1.18],
  ["RRIRCRPPRLPRPRPRPNMCPRP", -0.222],
  ["RRIRFRPPRLPRPRPRPWQAPRP", 0.0155],
  ["RRIRKRPPRLPRPRPRPMLKPRP", 0.954],
  ["RRIRRRPPRLPRPRPRPVTCPRP", -0.108]
]}

====

System: Escherichia coli TOP10
test-protocol: shrunken log2 fold change of peptide-encoding DNA abundance (4.5 h post-induction vs induction); higher = less antimicrobial activity (less host growth inhibition)
condition-details: time post-induction: 4.5 h; library: site-saturation at positions 5, 18, 19, 20

{"columns": ["sequence-content", "shrunken log2 fold change"],
 "data": [
  ["RRIRRRPPRLPRPRPRPIILPRP", -0.406],
  ["RRIRVRPPRLPRPRPRPSPYPRP", -0.409],
  ["RRIRGRPPRLPRPRPRPYQNPRP", -0.0136],
  ["RRIRNRPPRLPRPRPRPGLFPRP", 0.0823],
  ["RRIRYRPPRLPRPRPRPRPPPRP", 1.01],
  ["RRIRARPPRLPRPRPRPGIRPRP", 0.475],
  ["RRIRGRPPRLPRPRPRPFHFPRP", 0.119],
  ["RRIRVRPPRLPRPRPRPWPSPRP", 0.143]
]}

====

Tested on: Escherichia coli TOP10;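 also: peptides expressed intracellularly from a pBAD plasmid library in pooled LB shake-flask culture, induced with 0.3% L-arabinose, DNA abundance read by NGS, three biological replicates, DESeq2 with apeglm shrinkage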
test-protocol: shrunken log2 fold change of peptide-encoding DNA abundance (4.5 h post-induction vs induction); higher = less antimicrobial activity (less host growth inhibition)
condition-details: time post-induction: 4.5 h; library: site-saturation at positions 5, 18, 19, 20
Please note: criterion met applies when shrunken log2 fold change is -0.01 or greater, and criterion not met applies otherwise.

{"columns": ["sequence-content", "test-system", "label"],
 "data": [
  ["RRIRWRPPRLPRPRPRPMMHPRP", "Escherichia coli TOP10", "criterion met"],
  ["RRIRSRPPRLPRPRPRPKNNPRP", "Escherichia coli TOP10", "criterion not met"],
  ["RRIRFRPPRLPRPRPRPEEEPRP", "Escherichia coli TOP10", "criterion met"],
  ["RRIRIRPPRLPRPRPRPESCPRP", "Escherichia coli TOP10", "criterion not met"],
  ["RRIRYRPPRLPRPRPRPHASPRP", "Escherichia coli TOP10", "criterion met"],
  ["RRIRYRPPRLPRPRPRPSHKPRP", "Escherichia coli TOP10", "criterion not met"],
  ["RRIRDRPPRLPRPRPRPDREPRP", "Escherichia coli TOP10", "criterion not met"],
  ["RRIRWRPPRLPRPRPRPPNQPRP", "Escherichia coli TOP10", "criterion met"],
  ["RRIRCRPPRLPRPRPRPDAGPRP", "Escherichia coli TOP10", "criterion met"],
  ["RRIRHRPPRLPRPRPRPQSIPRP", "Escherichia coli TOP10", "criterion not met"],
  ["RRIRNRPPRLPRPRPRPWLIPRP", "Escherichia coli TOP10", "criterion not met"],
  ["RRIRMRPPRLPRPRPRPVQCPRP", "Escherichia coli TOP10", "criterion not met"],
  ["RRIRTRPPRLPRPRPRPALVPRP", "Escherichia coli TOP10", "criterion met"],
  ["RRIRMRPPRLPRPRPRPVEGPRP", "Escherichia coli TOP10", "criterion met"],
  ["RRIRPRPPRLPRPRPRPQTRPRP", "Escherichia coli TOP10", "criterion met"]
]}
